Consider the following molecules; for each one, report its melting point.
Numbers only here, please. The scale is °C.

// Input: CCN(CC)c1ccc(C2=NN(c3ccccc3)C(c3ccc(OC)cc3)C2)cc1 (stereo not drawn) . Output its melting point only.
121

// fetch melting point given entry COc1ccc(C2CC(c3ccc(N(C)C)cc3)=NN2c2ccccc2)cc1 (stereo not drawn)
147

For the molecule CCN(CC)c1ccc(/C=C/C(=O)c2ccccn2)cc1 , give its measured melting point value.
142

Report measured melting point; entry is CN(C)c1ccc(/C=C/C(=O)c2ccccn2)cc1
126

Dear colleague, please send me the reported melting point for CN(C)c1ccc(C2=NN(c3ccccc3)C(c3ccc(Cl)cc3Cl)C2)cc1 (stereo not drawn) when you can.
124

For the molecule COc1ccc(C2CC(c3ccc(N(C)C)cc3)=NN2c2ccccc2)cc1OC (stereo not drawn) , give its reported melting point.
134

# return recorded melting point for input CCN(CC)c1ccc(C2=NN(c3ccccc3)C(c3ccccn3)C2)cc1 (stereo not drawn)
188

Tell us which melting point value is on record for COc1ccc(C(=O)/C=C/c2ccc(N(C)C)cc2)cc1OC
86

Look up and state reported melting point for CN(C)c1ccc(C2=NN(c3ccccc3)C(c3ccccn3)C2)cc1 (stereo not drawn)
179
